Numbers sourced from patent US11464864B2.

Test system: SW480 cells
Assay: Measurement of cytotoxicity, MTT assay
Type: cell-based
Details: Homo sapiens, 48 hours incubation, read-out: IC50 (cell viability, MTT)
Method: High glucose Dulbecco's modified Eagle's medium (DMEM), Roswell Park Memorial Institute (RPMI) 1640, Dulbecco's phosphate buffered saline, pH 7.4 (DPBS), fetal bovine serum (FBS), and trypsin/EDTA were obtained from Gibco™ and Thermo Fischer Scientific. […] SW480 cells and HT-29 cells (4.5×10^3 cells per well) were seeded in a 96-well plate. […] The medium was replaced with DMSO, and the dissolved formazan dye was quantified by measuring the absorbance at 500 nm. […]
pIC50: −log10 of the molar value.
measured-property: pIC50

In [3]: df
Out[3]:
                                   compound  target_or_test_system  measured_property  result_value
0  CC[C@@]1(O)C(=O)OCc2c1cc1n(c2=O)Cc2cc3ccccc3nc2-1 [CPT, Camptothecin]            SW480 cells              pIC50          5.82
